Please respond with reported cytotoxicity at 10 µM for every item in the list.
test: Toxicity liver stage against HepG2, at 10uM; type: cell-based; set-up: test concentration 10 uM, cell line HepG2-A16-CD81EGFP; conditions: human, HepG2-A16-CD81EGFP cells; read-out: INHIBITION
Number in %, nothing else.

Given item O=S1(=O)CCN2C(=N1)Oc1ccc(S(=O)(=O)N3CCCC3)cc12 , the value recorded as its cytotoxicity at 10 µM is 18.2

Entry CN1CC2(CCCN(C(=O)c3cnc4ccc(F)cc4c3O)C2)OC1=O (stereo not drawn) , cytotoxicity at 10 µM reported as 6.25

Query Cc1cnc(NCC(C)(C)N2CCOCC2)nc1 yields cytotoxicity at 10 µM of 5.68

Kindly note the recorded cytotoxicity at 10 µM for CNC(=O)NC(=O)CN(C)C(c1cccnc1)c1ccc(F)cc1F (stereo not drawn) , which is 5.3

Form: molecule = CCNC(=O)c1cnc(Sc2nccn2C)c(Cl)c1 ; cytotoxicity at 10 µM = -49.2

Note to self: cytotoxicity at 10 µM recorded for c1cncc(C2CC3(CCN(c4cnccn4)CC3)c3ccccc32)c1 (stereo not drawn) was 11.2

get_value(item= CSC(C)(C)CNC(=O)NCCC1CCN(C)CC1 , readout=cytotoxicity at 10 µM) returns 22.3

cytotoxicity at 10 µM for Cc1cnn(C2CCCN(C(=O)c3sccc3C#N)C2)c1 (stereo not drawn) is 0.736

// sample COc1ccc2c(c1)CC(NCCCn1nc(C)nc1C)CC2 (stereo not drawn) , its cytotoxicity at 10 µM was -3.27

cytotoxicity at 10 µM reading for Cn1ncnc1CCNC(=O)c1cc(Cl)c(Cl)n1C : -5.12

// cytotoxicity at 10 µM value for N#CC1(C(=O)Nc2ccc(OC(F)F)cc2)CCCC1 : -11.1

The recorded cytotoxicity at 10 µM for entry O=C1NCCCc2c1oc1ccc(O)c(CN3CCOCC3)c21 equals 13.3

The molecule listed as O=C(COCc1ccccc1Cl)N1CCN(c2ncccn2)CC1 shows cytotoxicity at 10 µM equal to 6.43

get_value(item= O=C1C(Sc2nc(=O)ccn2C2CC2)CCN1c1ccccc1 (stereo not drawn) , readout=cytotoxicity at 10 µM) returns 1.27

So for Cc1ccc(S(N)(=O)=O)cc1C(=O)NC1CCCN(C)C1 (stereo not drawn) , the logged cytotoxicity at 10 µM turned out to be -1.96

The molecule CC1CCCN(CCNC(=O)c2ccn(-c3ccccc3)n2)C1 (stereo not drawn) showed cytotoxicity at 10 µM equal to -3.81

Measured cytotoxicity at 10 µM of Cc1cc(F)cc(CN2CCCn3nc(CNS(C)(=O)=O)cc3C2)c1 : -3.85

The recorded cytotoxicity at 10 µM for entry CC1CN(Cc2nccn2C)CCN1c1ccc2nncn2n1 (stereo not drawn) equals -8.52

----------
For each record, write down the corresponding cytotoxicity at 10 µM.
experiment: Toxicity liver stage against HepG2, at 10uM; type: cell-based; parameters: test concentration 10 uM, cell line HepG2-A16-CD81EGFP; conditions: human, HepG2-A16-CD81EGFP cells; read-out: INHIBITION
Write the numeric value and append its unit.

// O=C(CN1CCCC(Cn2cncn2)C1)NCCOc1ccccc1 (centres undefined) : cytotoxicity at 10 µM value = 5.61%

Noted for CN(CC(C)(C)O)C(=O)Nc1ccc(F)c(-n2cccc2)c1 : its cytotoxicity at 10 µM reads -9.3%

For Cc1cc(-c2cnc(N3CCNC(=O)C3)nc2-c2sccc2C)on1 the molecule record lists cytotoxicity at 10 µM as -12%

The molecule O=C(CSC1=NS(=O)(=O)c2cc(F)ccc2N1)Nc1cccc(Cl)c1 showed cytotoxicity at 10 µM equal to 3.92%

Item: CS(=O)(=O)NCCNC(=O)c1ccc(OCc2ccccc2)nc1 | cytotoxicity at 10 µM: 4.43%

Item: CNC(=O)c1cccc(C2CNCCN2C(C)=O)c1 (centres undefined) | cytotoxicity at 10 µM: 0.384%

# cytotoxicity at 10 µM of CC(C)OCCN1CCc2cncnc2C1 = -7.52%

molecule CC[C@H]1COCCN1C(=O)c1ccc(OC)c(N2CCOCC2)c1 , cytotoxicity at 10 µM observed: 3.89%

Lab book: cytotoxicity at 10 µM of COc1ccc(/C=C/CN2CCN(c3nccnc3C)CC2)cc1 noted as -8.47%

For Cc1cc(C)cc(C(=O)Nc2cn[nH]c2)c1 the molecule record lists cytotoxicity at 10 µM as -6.57%

response.value for c1cnnc(N2CCCC(NCc3nc(-c4cccs4)no3)C2)c1 (centres undefined) (field: cytotoxicity at 10 µM) = 15.8%

Recorded result, CC(O)(CNC(=O)c1cccnc1-n1cccn1)c1ccsc1 (centres undefined) , cytotoxicity at 10 µM: 2.38%

Entry COc1ccc(CC(=O)N2CCCC(Cn3cc(CN)nn3)C2)cc1 (centres undefined) — recorded cytotoxicity at 10 µM = 7.22%

Recorded cytotoxicity at 10 µM (molecule CS(=O)(=O)NC1CCCN(Cc2ccccn2)C1 (centres undefined) ): 4.74%
